- ASSAY_PROCEDURE: M. tuberculosis H37Rv growth inhibitors, H37Rv strain (AID 1626);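 further: bacteria incubated seven days before Alamar blue readout; 0% = bacteria only wells and 100% = bacteria with antibiotic wells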
- SETUP_CONDITIONS: active compounds read high, concentration not given here
In all, about 220,000 compounds went through this assay and about 2,000 (0.91%) were called active. Another 2% or so got no clear call; they are omitted. Only a sample is shown. Potency and affinity values are given separately.
Below, each entry is listed with its recorded inhibition.
ENDPOINT: inhibition (%)

COMPOUND	ENDPOINT	OBSERVED_VALUE
O=C(N/C=C/c1ccccc1)Nc1ccc(Cl)cc1	inhibition	7.4
N#Cc1nc(-c2cccs2)oc1NCc1ccccc1	inhibition	6.94
CCOC(=O)c1ccc(-n2c(CN3CCN(CC)CC3)nc3ccc([N+](=O)[O-])cc3c2=O)cc1	inhibition	64.1
O=C(Cn1nc(CNc2ccc(Cl)cc2)[n+]2c1CCCCC2)c1ccccc1	inhibition	9.42
Cc1cc(N2CCN(C)CC2)nc2ccc(NC(=O)c3cccnc3Cl)cc12	inhibition	-11.1
Cc1nc(Nc2c(Cl)cccc2Cl)sc1C(=O)Nc1ccccc1	inhibition	10.3
CCOC(=O)c1ccc(-n2c(CN3CCOCC3)nc3ccc([N+](=O)[O-])cc3c2=O)cc1	inhibition	69.4
CCOc1ccccc1N(CC(=O)NCc1ccccc1)C(=O)CCC(=O)Nc1cc(C)ccn1	inhibition	-1.77
CN(C)c1ccc(C(=S)N2CCN(c3ccc([N+](=O)[O-])cc3)CC2)cc1	inhibition	9.45
CC12CN3CC(C)(CN(C1)C3c1cccnc1)C2=O (stereo not drawn)	inhibition	-0.26
CCCC(=O)Nc1nc2ccc(NC(=O)c3ccc(Br)o3)cc2s1	inhibition	-1.78
C=CCNc1oc(-c2cccs2)nc1C#N	inhibition	-10.7
COc1ccc(CCN(Cc2cccs2)S(=O)(=O)c2ccc(C(=O)O)cc2)cc1OC	inhibition	-3.72

* * *

- ASSAY_PROCEDURE: M. tuberculosis H37Rv growth inhibitors, H37Rv strain (AID 1626);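 further: bacteria incubated seven days before Alamar blue readout; 0% = bacteria only wells and 100% = bacteria with antibiotic wells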
- SETUP_CONDITIONS: active compounds read high, concentration not given here
Among all 220,000 compounds or so, about 2,000 (0.91%) were called active. Another 2% or so got no clear call; they are omitted. Not all results are given here. Measured potencies and affinities stand elsewhere.

COMPOUND	UNIT_TEXT	inhibition
O=C(CN1CCN(Cc2ccccc2)CC1)N/N=C/c1ccccc1F	%	-1.58
O=C(Nc1nc(-c2cc3ccccc3oc2=O)cs1)c1ccco1	%	-2.76
COc1ccc(OCc2csc(N)n2)cc1	%	-2.49
O=c1c2c3c(sc2nc(NCCO)n1CCc1ccccc1)CCCCC3	%	5.74
Cc1ccc(OCc2csc(N)n2)cc1	%	2.65
CN(C)c1nc(-c2ccccn2)nnc1-c1ccccc1	%	68
CCC1(CC)C(=O)N(C)C(=O)NC1=Nc1ccc(OC)cc1	%	-7.12
CC(=O)Nc1cccc(-c2csc(N)n2)c1	%	1.85
O=[N+]([O-])c1ccc(N=Nc2ccc(O)cc2O)cc1	%	5.58
CN1CCN(S(=O)(=O)c2cccc(C(=O)Nc3nccs3)c2)CC1	%	-4.26
Cc1cc(=O)oc2cc(Oc3ccc(C(N)=O)cc3[N+](=O)[O-])ccc12	%	-11.6
Nc1ccc(Nc2nc(-c3cc4ccccc4oc3=O)cs2)cc1	%	-8.26
Nc1nc(-c2ccccc2)cs1	%	56.7
COC(c1ccccc1)c1nnc(CCC(=O)N(C)CCc2ccccc2)o1 (stereo unspecified)	%	-1.5
CN1CCC(C2(O)c3ccccc3CCc3ccccc32)CC1	%	-4.72
Fc1cccc(-c2csc(-c3ccno3)n2)c1	%	0.3
